B1: SPDEF (parent)
chain: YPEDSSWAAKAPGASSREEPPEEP

# Variants of: B1
# assay: protein stability index of a GFP-peptide fusion (GPS, HEK-293T) (PSI 1-6); higher = more stable;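 further: lentivirally expressed fusions sorted by FACS into six bins by GFP to DsRed ratio, PSI derived from sequencing read proportions per bin multiplied by bin number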
# setup.conditions: c terminus: a fixed tail appended
Assign Met whenever protein stability index does not fall below 4; assign Not met whenever it does.

D4I = Not met

## Input Given W7S , state whether its protein stability index is at least 4.
## Output Met

## Input Quick check, protein stability index >= 4? Y1C
## Output Met
